The values you see were collected from the RNAGym collection of RNA variant scans (doi:10.7554/elife.90254).

B1: LINE1-mini (parent)
chain: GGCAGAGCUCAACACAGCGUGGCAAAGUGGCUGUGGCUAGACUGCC

# Variants of: B1
# measurement-notes: self-cleavage, relative activity (ratio to wild type); higher = more cleavage; in vitro, sequencing; the parent is a self-cleaving ribozyme
For each entry below, report its self-cleavage value.
Just the number, please, no unit attached.

*Q* Endpoint output: self-cleavage of GGCAGAGCUCAACACAGCGUCGCAAAGUGGCUGUGGCUUGACUGCC . Value?
*A* 0.81

*Q* Endpoint output: self-cleavage of GGCAGAGCUCAACACAGCGUGGCAAAGUCGCUGUGGCUAGAGUGCC . Value?
*A* 0.02

*Q* Endpoint output: self-cleavage of GGCAGAGCUCAACACCGCGUGGCAAAUUGGCUGUGGCUAGACUGCC . Value?
*A* 0.14

*Q* Endpoint output: self-cleavage of UGCAGAGCUCAACACAGCGUGGCAAAGUGGUUGUGGCUAGACUGCC . Value?
*A* 0.07

*Q* Endpoint output: self-cleavage of GGCAGAGCUAAACACAGCAUGGCAAAGUGGCUGUGGCUAGACUGCC . Value?
*A* 0.07

*Q* Endpoint output: self-cleavage of GGCUGAGCUCAACACAGCGUGGCAAAGUGGCGGUGGCUAGACUGCC . Value?
*A* 0.14

*Q* Endpoint output: self-cleavage of GGCAGAGCUCAACACAGCGUGGCAAAGUGGCUAUGACUAGACUGCC . Value?
*A* 0.12

*Q* Endpoint output: self-cleavage of GGCAGAGCUCAACACAGCGUGGCAAAGUGCAUGUGGCUAGACUGCC . Value?
*A* 0.75

*Q* Endpoint output: self-cleavage of GUCAGAGCUCAACACAGCGUGGCAAAGUGGCUGUGGCUAGACUGCU . Value?
*A* 0.06

*Q* Endpoint output: self-cleavage of GGCAGAGCUCAAUACAGCAUGGCAAAGUGGCUGUGGCUAGACUGCC . Value?
*A* 0.16

*Q* Endpoint output: self-cleavage of GGCAGAUCUGAACACAGCGUGGCAAAGUGGCUGUGGCUAGACUGCC . Value?
*A* 0.03

*Q* Endpoint output: self-cleavage of GGCAGAGCUCAACACAGGGUGGCAAAGUGGCUGUGGCUAGACUUCC . Value?
*A* 0.05

*Q* Endpoint output: self-cleavage of CGCAGAGCUCAACACAGCGUGGCAAAGUUGCUGUGGCUAGACUGCC . Value?
*A* 0.14

*Q* Endpoint output: self-cleavage of GGCAGAGCUCAACACAGUGUGGCAAAGUGGCUGUGGCUAGACGGCC . Value?
*A* 0

*Q* Endpoint output: self-cleavage of GGCAGAGCUCAACACAGCGUGGCACAGUGGCUGUGGCUAAACUGCC . Value?
*A* 0.1

*Q* Endpoint output: self-cleavage of GGCAGAGCUCAAGACAGCGUGGCAAAGUAGCUGUGGCUAGACUGCC . Value?
*A* 0.19

*Q* Endpoint output: self-cleavage of GGCAGAGCUCAACACCGCGUGGCAAAGUGGAUGUGGCUAGACUGCC . Value?
*A* 0.08

*Q* Endpoint output: self-cleavage of GGCAGAACUCAACACAGCGUGGCAAAGUGGCUGUGGCAAGACUGCC . Value?
*A* 0.09

*Q* Endpoint output: self-cleavage of GGCAGAGCUCAACACAGCGUGGCAAAGUGGCUGUGGCUCGACUCCC . Value?
*A* 0.04

*Q* Endpoint output: self-cleavage of GGCAGAGCUCAACACAGUGUGGCAAAGCGGCUGUGGCUAGACUGCC . Value?
*A* 1.2

*Q* Endpoint output: self-cleavage of GGCAGAGCUCAACACAGCGUAGCAAAGUGGCUGUGGCUGGACUGCC . Value?
*A* 0.14

*Q* Endpoint output: self-cleavage of GGCAGAGCUCAACACAGAGUGGCAAAGUGGCUGUGGCAAGACUGCC . Value?
*A* 0.49

*Q* Endpoint output: self-cleavage of GGCAGAGCUCGACACAGCGUGGCAAAGUGGCUGUGGCUAGACUGUC . Value?
*A* 0.03

*Q* Endpoint output: self-cleavage of GGCAGAGCUCAGCAAAGCGUGGCAAAGUGGCUGUGGCUAGACUGCC . Value?
*A* 0.02

*Q* Endpoint output: self-cleavage of GGCAGAGCUCAAAACAGCGUGGCAAAGUGGCCGUGGCUAGACUGCC . Value?
*A* 0.09

*Q* Endpoint output: self-cleavage of GGCAGCGCUCAACACAGCGUGGCAAAGUGGCUGUGGCUAGACCGCC . Value?
*A* 0.08

*Q* Endpoint output: self-cleavage of GGCAGAGCUCAACACAGCGUGGGAAAGUGGCUGGGGCUAGACUGCC . Value?
*A* 0.23

*Q* Endpoint output: self-cleavage of GGCAGAGCUCAACCCAGCGUGGCAAAGUGGCUGUUGCUAGACUGCC . Value?
*A* 0.07

*Q* Endpoint output: self-cleavage of GGCAGAGCUCAACACAGCGUGGCAAAGUGGCUGGGGCGAGACUGCC . Value?
*A* 0.03

*Q* Endpoint output: self-cleavage of GGCAGAGCUCGACACAGCGUGGCAAAGUGGCUGUGACUAGACUGCC . Value?
*A* 0.02

*Q* Endpoint output: self-cleavage of GGCAGAGCUCAACACAGGGUGGCAAUGUGGCUGUGGCUAGACUGCC . Value?
*A* 0.42

*Q* Endpoint output: self-cleavage of GGCUGAGCUCAACAGAGCGUGGCAAAGUGGCUGUGGCUAGACUGCC . Value?
*A* 0.06

*Q* Endpoint output: self-cleavage of GGCAGAGCUCAACACAGCGUGGCAAAGUGGCUGUGGCUAGAAUGCG . Value?
*A* 0.07

*Q* Endpoint output: self-cleavage of GGCAGACCUCAACACAGCGUGGCAAAGUGGCUGUGGCUAGACUGCU . Value?
*A* 0.08

*Q* Endpoint output: self-cleavage of GGCAGAGCUCAACACAGCGAGGCUAAGUGGCUGUGGCUAGACUGCC . Value?
*A* 0.62

*Q* Endpoint output: self-cleavage of GGCAGACCUCAACACAGCCUGGCAAAGUGGCUGUGGCUAGACUGCC . Value?
*A* 0.05

*Q* Endpoint output: self-cleavage of AGCAGAGCUCAACACAGCGUGGCAAAGUGGCUGUGUCUAGACUGCC . Value?
*A* 0.1

*Q* Endpoint output: self-cleavage of GGCAGAGCUCAACACAGCGUGGCAAAGGGGCUGUGGCUAGACUCCC . Value?
*A* 0.54

*Q* Endpoint output: self-cleavage of GGCAGAGCUCAACACAGCGUGGCAAAGUGGCAGUGGCUAGAUUGCC . Value?
*A* 0.05

*Q* Endpoint output: self-cleavage of GGCAGGGCUCAACACCGCGUGGCAAAGUGGCUGUGGCUAGACUGCC . Value?
*A* 0.04

*Q* Endpoint output: self-cleavage of GGCAGAUCUCAACACAGCGUGGCAAAGUUGCUGUGGCUAGACUGCC . Value?
*A* 0.15

*Q* Endpoint output: self-cleavage of GGCAGAGCUCAACACAGCGUGGCAAAGUGGCUGUGGCUAGACUGUA . Value?
*A* 0.63

*Q* Endpoint output: self-cleavage of GGCAUAGCUCAACACAUCGUGGCAAAGUGGCUGUGGCUAGACUGCC . Value?
*A* 0.05

*Q* Endpoint output: self-cleavage of GGCAGAGCUCAACACAUCGUGGCAAAGUGCCUGUGGCUAGACUGCC . Value?
*A* 0.59

*Q* Endpoint output: self-cleavage of GGCAGAGCUCAACACAGCGUGGUAAAGAGGCUGUGGCUAGACUGCC . Value?
*A* 0.82

*Q* Endpoint output: self-cleavage of GGCAGAGGUCAACACAGCGUGGCGAAGUGGCUGUGGCUAGACUGCC . Value?
*A* 0.15
